All values here come from the supplement of paper PMC9170038.

Tested on: MS2 coat protein
method_description: apparent KD of MS2 coat protein; higher = weaker reporter binding
setup_conditions: Eterna round: R107; input ligand: theophylline 20 uM
# apparent KD of MS2 coat protein >= 50 nM gives y, anything below gives n

[
  {
    "monomer_sequence": "CUCUGAGUGAUCGCUCACUCAGAGGCGGAUACCAGCGAGGUCCAUCGCCCUUGGCAGCCGAACAUGAGGAUCACCCAUGUCGGUA [#1 Same State - Theophylline A Attempt #20 (HarryS)]",
    "label_class": "n"
  },
  {
    "monomer_sequence": "UGUGCAUGAGUUGGAAAAGCUCAUGGGCAUCGAGGACCGGUACGGCCGCCACUCGGCUGUACAUGAGGAUCACCCAUGUCAGGGU [#1 Same State - Tryptophan A Attempt #23 (HarryS)]",
    "label_class": "y"
  },
  {
    "monomer_sequence": "UGAACAUGAGGAUCACCCAUGUAGUCAGAUACCAGACACUGCAUGGUCCCUUGGCAGCUGAAGAGCGUUUGCCAAAUAACGUUCA [Theo A SS t4]",
    "label_class": "y"
  },
  {
    "monomer_sequence": "ACAUGAGGAUCACCCAUGUGCAUCACCCGACGAGGACCGGUACGGCCGCCACUCGGGUAUAUAUUUGCAUCGGGUGAUUUUACGU [#25 Tryptophan A Same State]",
    "label_class": "y"
  },
  {
    "monomer_sequence": "AGCGAUAUGCAUGAUACCAGCUACAUGAGGAUCACCCAUGUGCGUCAGUAAUGACUGUGUAGCCCUUGGCAGCAUAGAGCAUGUA [Exclusion - Theophylline B (Freestyle 12)]",
    "label_class": "n"
  },
  {
    "monomer_sequence": "GAUAACAUGAGGAUCACCCAUGUGGCGUCGCGAGGACCGGUACGGCCGCCACUCGGCAGUUCAACUCGAAUAUAGUGAUCGAAGU [theeternabot_sameState_MS2_Trp_A_16]",
    "label_class": "y"
  },
  {
    "monomer_sequence": "CGUGCUAGGGCGGCCGCCACUGUGGCUACGGUACAUGAGGAUCACCCAUGUUUGUGGUUGAUCUACAGGACCGGGCCCUGGCACG [Radiaerdi]",
    "label_class": "y"
  },
  {
    "monomer_sequence": "GGAUUCAACUCGGCCGCCACUGGUGAUCCUAAUGUACAUGAGGAUCACCCAUGUACAUGAGAAUACAGGACCGGGAGAUAAGCAA [Tryptophan B V2 (+4A)]",
    "label_class": "n"
  },
  {
    "monomer_sequence": "CUAUAUAUAAGAAGGAGCGUCGAAAAUGGGUAAACAUGAGGAUCACCCAUGUAAAGGGAACGACAGGUAGGUCGCUUAUAUAUAG [AstromonsSSArgB#5]",
    "label_class": "y"
  },
  {
    "monomer_sequence": "CGCCGCGCGGGAAGGAGCGCGAUUACAUAACAUGAGGAUCACCCAUGUAAGAAAUUAUUCAUGCAGGUAGGUCGCCCGCGCGGCG [Same State Arginine B GF 5]",
    "label_class": "n"
  },
  {
    "monomer_sequence": "AGUACUCGAACGGAUACCAGCCGGACAUGAGGAUCACCCAUGUCCUACCAUUGUUCGGUUGGCCCUUGGCAGCCGUUCGUGUACA [Omei Theo B SS A v4]",
    "label_class": "y"
  },
  {
    "monomer_sequence": "ACACGUGACAAGGAUACCAGCCUGGCUAGUUCAAACCCUCACAUGAGGAUCACCCAUGUAGGCCCUUGGCAGCCUAUAGUCUAAG [theeternabot_exclusion_MS2_Theo_B_38]",
    "label_class": "n"
  },
  {
    "monomer_sequence": "AUGCAGAGCACGGCCGCCACUCCAUGUAUACAUGAGGAUCACCCAUGUAAUUUGUAUUUUUUAUAGAGGACCGGGUGAAAUGCAA [JR_SSTryptoB_Sub011]",
    "label_class": "n"
  },
  {
    "monomer_sequence": "AAUAAACAUGAGGAUCACCCAUGUAGGGUGCGAGGACCGGUACGGCCGCCACUCGGGUGAAAACAUGAAAAUCACCCAUGUAAAA [Mat - Exclusion - Trytophan A - D24]",
    "label_class": "y"
  },
  {
    "monomer_sequence": "CAACAAGUAACUGAUACCAGUGUACUGACAUGAGGAUCACCCAUGUUGGGUUUUGUUGUACACCCUUGGCAGCAGAAUCUUGUUG [AstrosExyTheB#21]",
    "label_class": "y"
  },
  {
    "monomer_sequence": "GGAACAUGAGGAUCACCCAUGUCGAGUGGUCGAGGACCGGUACGGCCGCCACUCGACAUUGCUCAUAGGUAUAGCGUGAGAACGC [Same State - Tryptophan 1]",
    "label_class": "y"
  },
  {
    "monomer_sequence": "UGUAUGGACUGAAGGAGCGGGUUGAUACCAUGAGGAUCACCCAUGGAAAAGGCGAAAGCCGCCCAGGUAGGUCGCAGUCCAUACU",
    "label_class": "n"
  },
  {
    "monomer_sequence": "AGAGAGGCGCAUGAUACCAGCUUGGCCUAACAUGAGGAUCACCCAUGUCAAUGGGCCUUAAGCCCUUGGCAGCAUAGGGUGUCCU [Xeestixexe]",
    "label_class": "y"
  },
  {
    "monomer_sequence": "AGCCACUCGAGUGAUCCUCACGAGUGGCUACGAGGACCGGUACGGCCGCCACUCGAAUUAACAUGAGGAUCACCCAUGUAAUCUC [Brourdmod06]",
    "label_class": "y"
  },
  {
    "monomer_sequence": "GGAUGCCACUAUGGAUAGCACGAUGCCGAUACCAGCUAGGAAACUAGCCCUUGGCAGCGGAACAUGAGGAUCACCCAUGUAUCCU [EThA NP+V+V2 #8]",
    "label_class": "n"
  },
  {
    "monomer_sequence": "AGCAGUACAACAGAUACCAGACUUUUAAUGCCUCUAAUUACAUGAGGAUCACCCAUGUUUGUCCCUUGGCAGCUGUUGUACUGCA [JR_ExcTheophyB_Sub010]",
    "label_class": "y"
  },
  {
    "monomer_sequence": "AGAUUCGACACGGCCGCCACUUUCAGUGGCUGGUCACAUGGUGCACAUGAGGAUCACCCAUGUGGAAGGACCGGGUGUUGAGUCU [XTryp B #25]",
    "label_class": "n"
  }
]
